- assaySystem: EGFR (human), P00533 [WT]
- Sequence (P00533 whole entry, looked up): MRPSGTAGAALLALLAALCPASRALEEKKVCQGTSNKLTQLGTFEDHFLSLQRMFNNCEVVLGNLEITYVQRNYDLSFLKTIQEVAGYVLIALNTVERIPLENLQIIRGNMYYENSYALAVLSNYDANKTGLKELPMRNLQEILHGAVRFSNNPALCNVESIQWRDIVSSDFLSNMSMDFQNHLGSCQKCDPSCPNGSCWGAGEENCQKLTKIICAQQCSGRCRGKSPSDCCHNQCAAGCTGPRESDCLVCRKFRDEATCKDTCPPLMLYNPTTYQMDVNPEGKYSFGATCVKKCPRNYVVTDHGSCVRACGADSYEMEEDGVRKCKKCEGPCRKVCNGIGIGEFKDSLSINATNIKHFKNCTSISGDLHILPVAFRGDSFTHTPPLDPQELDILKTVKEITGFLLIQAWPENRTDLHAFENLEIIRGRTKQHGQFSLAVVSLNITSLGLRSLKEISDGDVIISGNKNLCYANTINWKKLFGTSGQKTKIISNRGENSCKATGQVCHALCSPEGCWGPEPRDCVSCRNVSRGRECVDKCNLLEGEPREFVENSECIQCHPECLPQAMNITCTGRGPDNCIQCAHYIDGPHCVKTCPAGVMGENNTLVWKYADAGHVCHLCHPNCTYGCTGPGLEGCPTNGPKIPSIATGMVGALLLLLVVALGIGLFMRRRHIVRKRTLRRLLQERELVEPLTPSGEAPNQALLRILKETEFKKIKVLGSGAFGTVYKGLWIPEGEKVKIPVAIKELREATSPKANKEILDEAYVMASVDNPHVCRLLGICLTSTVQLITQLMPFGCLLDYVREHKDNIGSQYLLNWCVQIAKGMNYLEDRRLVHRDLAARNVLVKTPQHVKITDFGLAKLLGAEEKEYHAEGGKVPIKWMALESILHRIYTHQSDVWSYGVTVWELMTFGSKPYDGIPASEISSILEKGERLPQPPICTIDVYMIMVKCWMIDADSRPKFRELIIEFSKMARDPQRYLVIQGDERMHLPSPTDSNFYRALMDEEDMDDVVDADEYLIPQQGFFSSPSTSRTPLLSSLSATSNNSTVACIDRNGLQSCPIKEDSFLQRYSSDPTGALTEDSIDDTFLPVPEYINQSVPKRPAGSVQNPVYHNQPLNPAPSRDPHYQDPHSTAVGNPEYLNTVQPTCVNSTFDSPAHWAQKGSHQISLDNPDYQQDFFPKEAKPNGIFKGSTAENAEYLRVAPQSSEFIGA
- measurementSetup: a431
metricName: IC50 (µM)

C=CC(=O)Nc1cccc(-n2c(=O)cc(C)c3cnc(Nc4cn([C@H]5CCN(C)C5)nc4C)nc32)c1 = 1.28
C=CC(=O)Nc1cccc(-n2c(=O)cc(C)c3cnc(Nc4cnn(C)c4)nc32)c1 = 16.6
C=CC(=O)Nc1cccc(-n2c(=O)cc(C)c3cnc(Nc4cn(C5CCN(C)CC5)nc4C)nc32)c1.C=CC(=O)Nc1cccc(-n2c(=O)cc(C)c3cnc(Nc4cnn(C5CCN(C)CC5)c4C)nc32)c1 = 1.82
C=CC(=O)Nc1cccc(-n2c(=O)cc(C)c3cnc(Nc4ccc(OCCN(C)C)cc4)nc32)c1 = 1.03

---

- assaySystem: EGFR (human), P00533 [WT]
- measurementSetup: a431
// IC50 lookup, one value per entry
metricName: IC50

C=CC(=O)Nc1cccc(-n2c(=O)c(OC)cc3cnc(Nc4ccc(N5CCN(C)CC5)cc4OC)nc32)c1 = 0.201 µM
C=CC(=O)Nc1cccc(-n2c(=O)cc(C)c3cnc(Nc4ccc(N(C)CCN(C)C)cc4OC)nc32)c1 = 1.4 µM
C=CC(=O)Nc1cccc(-n2c(=O)cc(C)c3cnc(Nc4ccc(N(C)CCN5CCCC5=O)cc4OC)nc32)c1 = 4.24 µM
C=CC(=O)Nc1cccc(-n2c(=O)cc(C)c3cnc(Nc4ccc(OCCOC)cc4)nc32)c1 = 2.41 µM
C=CC(=O)Nc1cccc(-n2c(=O)cc(C)c3cnc(Nc4ccc(N5CCC(C(C)(C)O)CC5)cc4)nc32)c1 = 6.67 µM
C=CC(=O)Nc1cccc(-n2c(=O)cc(C)c3cnc(Nc4cn(C)nc4C)nc32)c1 = 1.25 µM
C=CC(=O)Nc1cccc(-n2c(=O)cc(C)c3cnc(Nc4ccc(OCCN(C)C)cc4OC)nc32)c1 = 2.4 µM
C=CC(=O)Nc1cccc(-n2c(=O)cc(C)c3cnc(Nc4ccc(OCCN(C)C)cc4Cl)nc32)c1 = 0.832 µM
C=CC(=O)Nc1cccc(-n2c(=O)cc(C)c3cnc(Nc4ccc(N(C)CCO)cc4OC)nc32)c1 = 1.69 µM
C=CC(=O)Nc1cccc(-n2c(=O)cc(C)c3cnc(Nc4ccc(N5CCN(C(C)=O)CC5)cc4Cl)nc32)c1 = 4.27 µM
C/C=C/C(=O)Nc1cccc(-n2c(=O)cc(C)c3cnc(Nc4ccc(N(C)CCN(C)C)cc4OC)nc32)c1 = 18 µM
C=CC(=O)Nc1cccc(-n2c(=O)cc(C)c3cnc(Nc4ccc(N(C)CCN(C)C)cc4OC(F)F)nc32)c1 = 0.884 µM
C=CC(=O)Nc1cccc(-n2c(=O)c(Cc3ccccc3)cc3cnc(Nc4ccc(N5CCN(C)CC5)cc4OC)nc32)c1 = 0.25 µM
C=CC(=O)Nc1cccc(-n2c(=O)cc(C)c3cnc(Nc4ccc(N(C)CCN(C)C)cc4Cl)nc32)c1 = 3.1 µM
C/C=C/C(=O)Nc1cccc(-n2c(=O)cc(C)c3cnc(Nc4ccc(OCCN(C)C)cc4OC)nc32)c1 = 24.8 µM
C=CC(=O)Nc1cccc(-n2c(=O)cc(C)c3cnc(Nc4ccc(N5CCN(C)CC5)c(C)c4)nc32)c1 = 0.653 µM
C=CC(=O)Nc1cccc(-n2c(=O)cc(C)c3cnc(Nc4ccc(N(C)CCN5CCCC5)cc4OC)nc32)c1 = 1.41 µM

Cited source for all entries: the Kinase Knowledgebase extract (Sharma et al. 2016)
